Tested on: Digitaria sanguinalis
Experiment: Post-emergence herbicidal activity against Digitaria sanguinalis (hairy crabgrass) seedlings assessed as plant growth inhibition at 150 g ai/ha measured 15 days after compound treatment under greenhouse conditions
Type: functional
Conditions: 360 h, read-out: GI
Quick reference for inhibition of growth at 150 g/ha among some compounds

Compound | Assay System | inhibition of growth at 150 g/ha
Cc1nn(-c2cc3nc(SCC(=O)O)sc3cc2F)c(=O)n1C(F)F | Digitaria sanguinalis | ≥ 90%
CCCSc1nc2cc(-n3nc(C)n(C(F)F)c3=O)c(F)cc2s1 | Digitaria sanguinalis | 80%
Cc1nn(-c2cc3nc(SCCC(=O)O)sc3cc2F)c(=O)n1C(F)F | Digitaria sanguinalis | 50%
CSc1nc2cc(-n3nc(C)n(C(F)F)c3=O)c(F)cc2s1 | Digitaria sanguinalis | < 50%
CCCCSc1nc2cc(-n3nc(C)n(C(F)F)c3=O)c(F)cc2s1 | Digitaria sanguinalis | 80%

Task: Reported inhibition of growth at 150 g/ha, compound Cc1nn(-c2cc3nc(SCC(=O)O)sc3cc2Cl)c(=O)n1C(F)F : ____
Output: ≥ 90%

Task: Reported inhibition of growth at 150 g/ha, compound CCOC(=O)C(C)Sc1nc2cc(-n3nc(C)n(C(F)F)c3=O)c(F)cc2s1 (configuration not stated) : ____
Output: ≥ 90%

Task: Reported inhibition of growth at 150 g/ha, compound C=CCSc1nc2cc(-n3nc(C)n(C(F)F)c3=O)c(F)cc2s1 : ____
Output: 60%

Task: Reported inhibition of growth at 150 g/ha, compound CCOC(=O)C(C)Sc1nc2cc(-n3nc(C)n(C(F)F)c3=O)c(Cl)cc2s1 (configuration not stated) : ____
Output: 80%

Task: Reported inhibition of growth at 150 g/ha, compound COC(=O)Sc1nc2cc(-n3nc(C)n(C(F)F)c3=O)c(Cl)cc2s1 : ____
Output: < 50%

Task: Reported inhibition of growth at 150 g/ha, compound CCOC(=O)Sc1nc2cc(-n3nc(C)n(C(F)F)c3=O)c(Cl)cc2s1 : ____
Output: < 50%

Task: Reported inhibition of growth at 150 g/ha, compound C=CCSc1nc2cc(-n3nc(C)n(C(F)F)c3=O)c(Br)cc2s1 : ____
Output: < 50%

---

System: Amaranthus retroflexus
Assay: Post emergence herbicidal activity against Amaranthus retroflexus seedlings assessed as plant growth inhibition at 150 g ai/ha measured 15 days after compound treatment under greenhouse conditions
Assay type: functional
Conditions: 360 h, read-out: GI
Quick reference for inhibition of growth at 150 g/ha among some compounds

The examples below pair each entry with its known result.
Compound | Assay System | Result
Cc1nn(-c2cc3nc(SC(C)C(=O)O)sc3cc2Cl)c(=O)n1C(F)F (configuration not stated) | Amaranthus retroflexus | ≥ 90%
CCOC(=O)C(C)Sc1nc2cc(-n3nc(C)n(C(F)F)c3=O)c(F)cc2s1 (configuration not stated) | Amaranthus retroflexus | ≥ 90%
CCOC(=O)Sc1nc2cc(-n3nc(C)n(C(F)F)c3=O)c(F)cc2s1 | Amaranthus retroflexus | ≥ 90%
CCCCSc1nc2cc(-n3nc(C)n(C(F)F)c3=O)c(F)cc2s1 | Amaranthus retroflexus | 60%
CSc1nc2cc(-n3nc(C)n(C(F)F)c3=O)c(Cl)cc2s1 | Amaranthus retroflexus | 50%

Task: Reported inhibition of growth at 150 g/ha, compound C=CCSc1nc2cc(-n3nc(C)n(C(F)F)c3=O)c(F)cc2s1 : ____
Output: 50%

---

Experiment: Phytotoxicity against 4-leaf stage Glycine max (soybean) plants assessed as plant growth inhibition at 75 g ai/ha applied through spraying measured 30 days after compound treatment under greenhouse conditions
Assay type: organism-based
Settings: in vivo, read-out: GI
Quick reference for inhibition at 720 h among some molecules
# output: bare number, implied unit %

Molecule | inhibition at 720 h, %
Cc1nn(-c2cc(NS(C)(=O)=O)c(Cl)cc2Cl)c(=O)n1C(F)F | 10

Attention now turns to another entry.
Task: Reported inhibition at 720 h, molecule CCOC(=O)C(C)Sc1nc2cc(-n3nc(C)n(C(F)F)c3=O)c(F)cc2s1 (configuration not stated) : ____
Output: 0

---

Quick reference for pKi among some molecules
Biological target: Protoporphyrinogen oxidase, chloroplastic (Nicotiana tabacum, UniProt O24163)
Sequence (O24163 whole entry): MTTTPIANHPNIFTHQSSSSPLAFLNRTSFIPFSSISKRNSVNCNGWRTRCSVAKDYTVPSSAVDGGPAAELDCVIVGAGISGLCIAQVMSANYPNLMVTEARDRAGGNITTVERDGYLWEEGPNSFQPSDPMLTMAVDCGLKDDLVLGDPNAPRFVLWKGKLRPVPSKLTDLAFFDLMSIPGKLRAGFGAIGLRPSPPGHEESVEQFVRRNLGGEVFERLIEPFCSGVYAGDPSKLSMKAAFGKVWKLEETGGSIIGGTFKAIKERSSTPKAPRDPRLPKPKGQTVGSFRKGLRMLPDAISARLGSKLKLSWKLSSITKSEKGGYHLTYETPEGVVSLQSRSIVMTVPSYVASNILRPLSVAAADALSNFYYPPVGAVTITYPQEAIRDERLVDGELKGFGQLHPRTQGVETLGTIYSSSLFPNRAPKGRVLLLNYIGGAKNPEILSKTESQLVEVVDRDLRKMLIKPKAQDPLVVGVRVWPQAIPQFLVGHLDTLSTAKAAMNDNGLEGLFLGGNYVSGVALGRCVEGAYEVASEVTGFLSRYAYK
Test: Inhibition of Nicotiana tabacum (tobacco) recombinant PPO assessed as protoporphyrin IX formation at room temperature by fluorimetric assay
Please report pKi as the negative decimal logarithm of the molar concentration, giving only the number.

The examples below pair each entry with its known result.
Smiles Input | Assay Metric | Numeric Readout
COC(=O)CSc1nc2cc(-n3nc(C)n(C(F)F)c3=O)c(Cl)cc2s1 | pKi | 4.82
CCCSc1nc2cc(-n3nc(C)n(C(F)F)c3=O)c(Cl)cc2s1 | pKi | 5.70

Task: Reported pKi, molecule Cc1nn(-c2cc3nc(SCC(=O)O)sc3cc2F)c(=O)n1C(F)F : ____
Output: 5.82

Task: Reported pKi, molecule CSc1nc2cc(-n3nc(C)n(C(F)F)c3=O)c(Cl)cc2s1 : ____
Output: 4.86

---

Quick reference for inhibition of growth at 150 g/ha among some compounds
Tested on: Digitaria sanguinalis
Test: Post-emergence herbicidal activity against Digitaria sanguinalis (hairy crabgrass) seedlings assessed as plant growth inhibition at 150 g ai/ha measured 15 days after compound treatment under greenhouse conditions
Type: functional
Conditions: 360 h, read-out: GI
# output: bare number, implied unit %

Smiles Input | Assay System | Numeric Readout
CCOC(=O)CSc1nc2cc(-n3nc(C)n(C(F)F)c3=O)c(Br)cc2s1 | Digitaria sanguinalis | 80

Attention now turns to another entry.
Task: Reported inhibition of growth at 150 g/ha, compound COC(=O)Sc1nc2cc(-n3nc(C)n(C(F)F)c3=O)c(F)cc2s1 : ____
Output: 60

---

Quick reference for inhibition at 720 h among some compounds
Assay: Phytotoxicity against four-leaf stage Gossypium hirsutum (cotton) plants assessed as plant growth inhibition at 150 g ai/ha applied through spraying measured 30 days after compound treatment under greenhouse conditions
Format: organism-based
Conditions: in vivo, read-out: GI
# output: bare number, implied unit %

Compound | inhibition at 720 h [%]
CCOC(=O)C(C)Sc1nc2cc(-n3nc(C)n(C(F)F)c3=O)c(F)cc2s1 (configuration not stated) | 70

Attention now turns to another entry.
Task: Reported inhibition at 720 h, compound Cc1nn(-c2cc(NS(C)(=O)=O)c(Cl)cc2Cl)c(=O)n1C(F)F [SULFENTRAZONE] : ____
Output: 100

---

Target: UniProt O24163
Test: Inhibition of Nicotiana tabacum (tobacco) recombinant PPO assessed as protoporphyrin IX formation at room temperature by fluorimetric assay
pKi: −log10 of the molar value.
Threshold rule: pKi greater than or equal to 6 is Yes; below that, No.

Check out these entries, answers already filled in.
Molecule | Assay System | Label
CCCCSc1nc2cc(-n3nc(C)n(C(F)F)c3=O)c(F)cc2s1 | UniProt O24163 | Yes
Cc1nn(-c2cc3nc(SCCC(=O)O)sc3cc2F)c(=O)n1C(F)F | UniProt O24163 | No
CCOC(=O)CSc1nc2cc(-n3nc(C)n(C(F)F)c3=O)c(Br)cc2s1 | UniProt O24163 | No
CCOC(=O)Sc1nc2cc(-n3nc(C)n(C(F)F)c3=O)c(F)cc2s1 | UniProt O24163 | Yes
CCCSc1nc2cc(-n3nc(C)n(C(F)F)c3=O)c(F)cc2s1 | UniProt O24163 | Yes
COC(=O)Sc1nc2cc(-n3nc(C)n(C(F)F)c3=O)c(F)cc2s1 | UniProt O24163 | Yes

# next molecule below
Task: Item CCOC(=O)CSc1nc2cc(-n3nc(C)n(C(F)F)c3=O)c(F)cc2s1 with pKi of 6 or above?
Output: Yes

---

Assay: Phytotoxicity against 4-leaf stage Glycine max (soybean) plants assessed as plant growth inhibition at 150 g ai/ha applied through spraying measured 30 days after compound treatment under greenhouse conditions
Format: organism-based
Settings: in vivo, read-out: GI
Quick reference for inhibition at 720 h among some compounds
# output: bare number, implied unit %

Compound | inhibition at 720 h / %
CCOC(=O)C(C)Sc1nc2cc(-n3nc(C)n(C(F)F)c3=O)c(F)cc2s1 (configuration not stated) | 0

Attention now turns to another entry.
Task: Reported inhibition at 720 h, compound Cc1nn(-c2cc(NS(C)(=O)=O)c(Cl)cc2Cl)c(=O)n1C(F)F [SULFENTRAZONE] : ____
Output: 20

---

System: Amaranthus retroflexus
Assay: Post emergence herbicidal activity against Amaranthus retroflexus seedlings assessed as plant growth inhibition at 150 g ai/ha measured 15 days after compound treatment under greenhouse conditions
Assay type: functional
Conditions: 360 h, read-out: GI
Assay Metric: inhibition of growth at 150 g/ha

The examples below pair each entry with its known result.
Compound | Result
Cc1nn(-c2cc(NS(C)(=O)=O)c(Cl)cc2Cl)c(=O)n1C(F)F | ≥ 90%
CCOC(=O)Sc1nc2cc(-n3nc(C)n(C(F)F)c3=O)c(Cl)cc2s1 | < 50%
Cc1nn(-c2cc3nc(SCCC(=O)O)sc3cc2F)c(=O)n1C(F)F | ≥ 90%
CCOC(=O)CSc1nc2cc(-n3nc(C)n(C(F)F)c3=O)c(Cl)cc2s1 | 80%
CCCSc1nc2cc(-n3nc(C)n(C(F)F)c3=O)c(Cl)cc2s1 | 60%
CCCSc1nc2cc(-n3nc(C)n(C(F)F)c3=O)c(F)cc2s1 | 60%

Task: Reported inhibition of growth at 150 g/ha, compound COC(=O)CSc1nc2cc(-n3nc(C)n(C(F)F)c3=O)c(F)cc2s1 : ____
Output: ≥ 90%

Task: Reported inhibition of growth at 150 g/ha, compound Cc1nn(-c2cc3nc(SC(C)C(=O)O)sc3cc2F)c(=O)n1C(F)F (stereo unspecified) : ____
Output: ≥ 90%

Task: Reported inhibition of growth at 150 g/ha, compound COC(=O)CSc1nc2cc(-n3nc(C)n(C(F)F)c3=O)c(Cl)cc2s1 : ____
Output: ≥ 90%

Task: Reported inhibition of growth at 150 g/ha, compound CSc1nc2cc(-n3nc(C)n(C(F)F)c3=O)c(F)cc2s1 : ____
Output: 80%

Task: Reported inhibition of growth at 150 g/ha, compound COC(=O)Sc1nc2cc(-n3nc(C)n(C(F)F)c3=O)c(Cl)cc2s1 : ____
Output: < 50%

Task: Reported inhibition of growth at 150 g/ha, compound C=CCSc1nc2cc(-n3nc(C)n(C(F)F)c3=O)c(Br)cc2s1 : ____
Output: 60%

Task: Reported inhibition of growth at 150 g/ha, compound Cc1nn(-c2cc3nc(SCC(=O)O)sc3cc2F)c(=O)n1C(F)F : ____
Output: ≥ 90%

Task: Reported inhibition of growth at 150 g/ha, compound Cc1nn(-c2cc3nc(SCCC(=O)O)sc3cc2Cl)c(=O)n1C(F)F : ____
Output: ≥ 90%

Task: Reported inhibition of growth at 150 g/ha, compound CCCCSc1nc2cc(-n3nc(C)n(C(F)F)c3=O)c(Cl)cc2s1 : ____
Output: < 50%
